- Tested on: Bacillus subtilis
- method-description: Antimicrobial activity against Bacillus subtilis ATCC 6633 assessed as growth inhibition after 24 hr by NCCLS broth dilution method
- Format: functional
- condition-summary: ATCC 6633, 24 h
assay-endpoint: MIC

[[record]]
molecule = "CC1(C)S[C@@H]2[C@H](NC(=O)Cc3ccccc3)C(=O)N2[C@H]1C(=O)O [PENICILLIN G]"
assay_endpoint = "MIC"
value_reported = "1.56 µg/mL"

[[record]]
molecule = "CN1CCN(c2cc3ncnc(Sc4nnc(-c5cccnc5)o4)c3cc2NC(=O)Nc2cccc(Cl)c2)CC1"
assay_endpoint = "MIC"
value_reported = "12.5 µg/mL"

[[record]]
molecule = "Cc1cccc(NC(=S)Nc2ccc3ncnc(Sc4nnc(-c5cccnc5)o4)c3c2)c1"
assay_endpoint = "MIC"
value_reported = "75 µg/mL"

[[record]]
molecule = "CN[C@@H]1[C@H](O[C@H]2[C@H](O[C@H]3[C@H](O)[C@@H](O)[C@H](N=C(N)N)[C@@H](O)[C@@H]3N=C(N)N)O[C@@H](C)[C@]2(O)C=O)O[C@@H](CO)[C@H](O)[C@H]1O [STREPTOMYCIN]"
assay_endpoint = "MIC"
value_reported = "6.25 µg/mL"

[[record]]
molecule = "O=C(NCCc1ccccc1)Nc1ccc2ncnc(Sc3nnc(-c4cccnc4)o3)c2c1"
assay_endpoint = "MIC"
value_reported = "50 µg/mL"

[[record]]
molecule = "CN1CCN(c2cc3ncnc(Sc4nnc(-c5cccnc5)o4)c3cc2NC(=O)Nc2ccc(Cl)cc2)CC1"
assay_endpoint = "MIC"
value_reported = "6.25 µg/mL"

[[record]]
molecule = "Cc1ccccc1NC(=O)Nc1ccc2ncnc(Sc3nnc(-c4cccnc4)o3)c2c1"
assay_endpoint = "MIC"
value_reported = "50 µg/mL"

[[record]]
molecule = "Cc1ccccc1NC(=S)Nc1cc2c(Sc3nnc(-c4cccnc4)o3)ncnc2cc1N1CCN(C)CC1"
assay_endpoint = "MIC"
value_reported = "75 µg/mL"


###

- Test system: Bacillus subtilis
- method-description: Antimicrobial activity against Bacillus subtilis ATCC 6633 assessed as growth inhibition after 24 hr by NCCLS broth dilution method
- Format: functional
- condition-summary: ATCC 6633, 24 h
assay-endpoint: MIC (µg/mL)

[[record]]
sample_smiles = "Fc1ccc(NC(=S)Nc2ccc3ncnc(Sc4nnc(-c5cccnc5)o4)c3c2)cc1"
assay_endpoint = "MIC"
value_reported = 6.25

[[record]]
sample_smiles = "CN1CCN(c2cc3ncnc(Sc4nnc(-c5cccnc5)o4)c3cc2NC(=S)Nc2ccccc2Cl)CC1"
assay_endpoint = "MIC"
value_reported = 6.25

[[record]]
sample_smiles = "Cc1ccc(NC(=O)Nc2cc3c(Sc4nnc(-c5cccnc5)o4)ncnc3cc2N2CCN(C)CC2)cc1"
assay_endpoint = "MIC"
value_reported = 12.5

[[record]]
sample_smiles = "CN1CCN(c2cc3ncnc(Sc4nnc(-c5cccnc5)o4)c3cc2NC(=S)NC2CCCCC2)CC1"
assay_endpoint = "MIC"
value_reported = 75

[[record]]
sample_smiles = "Cc1ccc(NC(=S)Nc2ccc3ncnc(Sc4nnc(-c5cccnc5)o4)c3c2)cc1"
assay_endpoint = "MIC"
value_reported = 25

[[record]]
sample_smiles = "O=C(Nc1ccccc1)Nc1ccc2ncnc(Sc3nnc(-c4cccnc4)o3)c2c1"
assay_endpoint = "MIC"
value_reported = 25

[[record]]
sample_smiles = "CN1CCN(c2cc3ncnc(Sc4nnc(-c5cccnc5)o4)c3cc2NC(=S)Nc2ccc(Cl)cc2)CC1"
assay_endpoint = "MIC"
value_reported = 12.5

[[record]]
sample_smiles = "CN1CCN(c2cc3ncnc(Sc4nnc(-c5cccnc5)o4)c3cc2NC(=O)NCCc2ccccc2)CC1"
assay_endpoint = "MIC"
value_reported = 25

[[record]]
sample_smiles = "O=C(Nc1ccc2ncnc(Sc3nnc(-c4cccnc4)o3)c2c1)Nc1ccccc1Cl"
assay_endpoint = "MIC"
value_reported = 12.5


###

- Test system: Bacillus subtilis
- method-description: Antimicrobial activity against Bacillus subtilis ATCC 6633 assessed as growth inhibition after 24 hr by NCCLS broth dilution method
- Type: functional
- condition-summary: ATCC 6633, 24 h
assay-endpoint: MIC (µg/mL)

[[record]]
sample_smiles = "CN1CCN(c2cc3ncnc(Sc4nnc(-c5cccnc5)o4)c3cc2NC(=O)NC2CCCCC2)CC1"
assay_endpoint = "MIC"
unit_abbreviation = "µg/mL"
value_reported = 12.5

[[record]]
sample_smiles = "Cc1ccccc1NC(=O)Nc1cc2c(Sc3nnc(-c4cccnc4)o3)ncnc2cc1N1CCN(C)CC1"
assay_endpoint = "MIC"
unit_abbreviation = "µg/mL"
value_reported = 100

[[record]]
sample_smiles = "S=C(Nc1ccc2ncnc(Sc3nnc(-c4cccnc4)o3)c2c1)Nc1ccccc1Cl"
assay_endpoint = "MIC"
unit_abbreviation = "µg/mL"
value_reported = 50

[[record]]
sample_smiles = "O=C(Nc1ccc2ncnc(Sc3nnc(-c4cccnc4)o3)c2c1)NC1CCCCC1"
assay_endpoint = "MIC"
unit_abbreviation = "µg/mL"
value_reported = 50

[[record]]
sample_smiles = "COc1ccccc1NC(=S)Nc1cc2c(Sc3nnc(-c4cccnc4)o3)ncnc2cc1N1CCN(C)CC1"
assay_endpoint = "MIC"
unit_abbreviation = "µg/mL"
value_reported = 25

[[record]]
sample_smiles = "O=C(Nc1ccc(-c2ccccc2)cc1)Nc1ccc2ncnc(Sc3nnc(-c4cccnc4)o3)c2c1"
assay_endpoint = "MIC"
unit_abbreviation = "µg/mL"
value_reported = 12.5


###

- Test system: Staphylococcus aureus
- method-description: Antimicrobial activity against Staphylococcus aureus ATCC 25923 assessed as growth inhibition after 24 hr by NCCLS broth dilution method
- Format: functional
- condition-summary: ATCC 25923, 24 h
// reported MIC per item
assay-endpoint: MIC

[[record]]
sample_smiles = "O=C(Nc1ccc2ncnc(Sc3nnc(-c4cccnc4)o3)c2c1)NC1CCCCC1"
value_reported = "25 µg/mL"

[[record]]
sample_smiles = "Cc1ccc(NC(=S)Nc2ccc3ncnc(Sc4nnc(-c5cccnc5)o4)c3c2)cc1"
value_reported = "25 µg/mL"

[[record]]
sample_smiles = "S=C(Nc1ccc(Cl)cc1)Nc1ccc2ncnc(Sc3nnc(-c4cccnc4)o3)c2c1"
value_reported = "25 µg/mL"

[[record]]
sample_smiles = "Cc1cccc(NC(=S)Nc2cc3c(Sc4nnc(-c5cccnc5)o4)ncnc3cc2N2CCN(C)CC2)c1"
value_reported = "50 µg/mL"

[[record]]
sample_smiles = "CN1CCN(c2cc3ncnc(Sc4nnc(-c5cccnc5)o4)c3cc2NC(=S)Nc2ccc(Cl)cc2)CC1"
value_reported = "25 µg/mL"

[[record]]
sample_smiles = "CN1CCN(c2cc3ncnc(Sc4nnc(-c5cccnc5)o4)c3cc2NC(=S)NC2CCCCC2)CC1"
value_reported = "100 µg/mL"

[[record]]
sample_smiles = "Cc1cccc(NC(=O)Nc2ccc3ncnc(Sc4nnc(-c5cccnc5)o4)c3c2)c1"
value_reported = "25 µg/mL"

[[record]]
sample_smiles = "S=C(Nc1ccc2ncnc(Sc3nnc(-c4cccnc4)o3)c2c1)Nc1ccccc1Cl"
value_reported = "25 µg/mL"

[[record]]
sample_smiles = "Cc1ccccc1NC(=S)Nc1cc2c(Sc3nnc(-c4cccnc4)o3)ncnc2cc1N1CCN(C)CC1"
value_reported = "50 µg/mL"


###

// reported MIC per item
- Tested on: Bacillus subtilis
- method-description: Antimicrobial activity against Bacillus subtilis ATCC 6633 assessed as growth inhibition after 24 hr by NCCLS broth dilution method
- Assay type: functional
- condition-summary: ATCC 6633, 24 h
assay-endpoint: MIC

[[record]]
sample_smiles = "CN1CCN(c2cc3ncnc(Sc4nnc(-c5cccnc5)o4)c3cc2NC(=S)Nc2ccccc2)CC1"
system_under_test = "Bacillus subtilis"
assay_endpoint = "MIC"
value_reported = "25 µg/mL"

[[record]]
sample_smiles = "O=C(Nc1ccc(Cl)cc1)Nc1ccc2ncnc(Sc3nnc(-c4cccnc4)o3)c2c1"
system_under_test = "Bacillus subtilis"
assay_endpoint = "MIC"
value_reported = "12.5 µg/mL"

[[record]]
sample_smiles = "Cc1cccc(NC(=O)Nc2ccc3ncnc(Sc4nnc(-c5cccnc5)o4)c3c2)c1"
system_under_test = "Bacillus subtilis"
assay_endpoint = "MIC"
value_reported = "25 µg/mL"

[[record]]
sample_smiles = "S=C(Nc1ccc(Cl)cc1)Nc1ccc2ncnc(Sc3nnc(-c4cccnc4)o3)c2c1"
system_under_test = "Bacillus subtilis"
assay_endpoint = "MIC"
value_reported = "12.5 µg/mL"

[[record]]
sample_smiles = "Cc1ccc(NC(=S)Nc2cc3c(Sc4nnc(-c5cccnc5)o4)ncnc3cc2N2CCN(C)CC2)cc1"
system_under_test = "Bacillus subtilis"
assay_endpoint = "MIC"
value_reported = "50 µg/mL"

